- assay.system: SOS1 (Homo sapiens)
- Construct: HIS-SOS1cat (160 nM; Cytoskeleton, US); His (N); purchased Cytoskeleton
- Sequence (Q07889 564-1049 limits assumed): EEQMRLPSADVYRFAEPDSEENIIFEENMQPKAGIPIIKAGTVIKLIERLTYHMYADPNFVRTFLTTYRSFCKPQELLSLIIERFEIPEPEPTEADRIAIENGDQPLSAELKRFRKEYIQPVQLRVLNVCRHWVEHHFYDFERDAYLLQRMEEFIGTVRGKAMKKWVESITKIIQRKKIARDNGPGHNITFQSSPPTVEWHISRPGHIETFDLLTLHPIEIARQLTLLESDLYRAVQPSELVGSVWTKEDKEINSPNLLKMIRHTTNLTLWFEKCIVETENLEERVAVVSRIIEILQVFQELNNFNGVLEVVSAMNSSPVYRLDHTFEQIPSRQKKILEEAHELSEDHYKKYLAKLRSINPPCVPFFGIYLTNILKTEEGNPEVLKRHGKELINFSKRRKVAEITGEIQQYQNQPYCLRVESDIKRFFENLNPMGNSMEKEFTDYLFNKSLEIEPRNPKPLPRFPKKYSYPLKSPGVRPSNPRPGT
- assay.explanation: SOS-catalyzed nucleotide exchange assay (HTRF, SOS1-mediated GTP loading of KRAS G12D)
- Format: biochemical
- measurement.conditions: GST-KRAS G12D, HIS-SOS1cat, compound 128 pM to 10 µM; read-out: SOS-catalyzed nucleotide exchange assay
pIC50: −log10 of the molar value.
reported.property: pIC50

Recorded results for 5 compounds are shown here.
molecule: CCc1cc(C(=O)N[C@H](C)c2cccc(C(F)(F)F)c2F)nn(-c2cncc(-c3cnnn3C)c2)c1=O
reported.property: pIC50
recorded.result: 6.82 to 7.30
--
molecule: C[C@@H](NC(=O)c1ccc(=O)n(-c2cncc(-c3cnnn3C3CN(C)C3)c2)n1)c1cccc(C(F)(F)F)c1F
reported.property: pIC50
recorded.result: > 7.30
--
molecule: C[C@@H](NC(=O)c1ccc(=O)n(-c2cncc(-c3cnnn3C)c2)n1)c1cccc(C(F)F)c1F
reported.property: pIC50
recorded.result: 6.82 to 7.30
--
molecule: C[C@@H](NC(=O)c1cc(Cl)c(=O)n(-c2cncc(-c3c(Cl)nnn3C)c2)n1)c1cccc(C(F)F)c1F
reported.property: pIC50
recorded.result: 6.82 to 7.30
--
molecule: C[C@@H](NC(=O)c1cc(C(F)(F)F)c(=O)n(-c2cncc(-c3cnnn3C)c2)n1)c1cccc(C(F)(F)F)c1F
reported.property: pIC50
recorded.result: 6.82 to 7.30

Query block: Sample `C[C@@H](NC(=O)c1ccc(=O)n(-c2cncc(-c3cnnn3C)c2)n1)c1cccc(C(F)(F)CF)c1F` — what was its pIC50?
Result block: > 7.30

Query block: Sample `C[C@@H](NC(=O)c1cc(C2=CCCCC2)c(=O)n(-c2cncc(-c3cnnn3C)c2)n1)c1cccc(C(F)(F)F)c1F` — what was its pIC50?
Result block: < 6.82

Query block: Sample `Cc1c([C@@H](C)NC(=O)c2ccc(=O)n(-c3cncc(-c4ccnn4C)c3)n2)cc(N)cc1C(F)(F)F` — what was its pIC50?
Result block: > 7.30

Query block: Sample `C[C@@H](NC(=O)c1ccc(=O)n(-c2cnnc(-c3cnnn3C)c2)n1)c1cccc(C(F)(F)CO)c1F` — what was its pIC50?
Result block: 6.82 to 7.30

Query block: Sample `Cc1c([C@@H](C)NC(=O)c2ccc(=O)n(-c3cncc(-c4cnnn4C)c3)n2)cc(N)cc1C(F)(F)F` — what was its pIC50?
Result block: > 7.30

Query block: Sample `Cc1ncc(-n2nc(C(=O)N[C@H](C)c3cccc(C(F)(F)F)c3F)ccc2=O)cc1-c1cnnn1C` — what was its pIC50?
Result block: 6.82 to 7.30

Numbers sourced from patent EP4667464A1.
